Parameter: melting point

Q: Report melting point for C/C(=N\NC1=N/C(=C/c2ccc(Cl)cc2)C(=O)S1)c1cccs1 please.
Ans: 252 to 254 °C

Q: Record: C/C(=N\NC1=N/C(=C/c2ccc(O)cc2)C(=O)S1)c1ccc(C)cc1
Ans: 272 to 274 °C

Further cases:
Q: Given COc1ccc(/C(C)=N/NC(N)=S)cc1OC , state its recorded melting point.
Ans: 205 to 207 °C

Q: Record: COc1ccc(/C=C2/N=C(N/N=C(\C)c3ccc(OC)c(OC)c3)SC2=O)cc1
Ans: 240 to 242 °C

Q: Also, C/C(=N\NC1=N/C(=C/c2ccc(Cl)cc2Cl)C(=O)S1)c1ccc(C)cc1 please.
Ans: > 300 °C

Q: Next record, please: COc1ccc(/C(C)=N/NC2=N/C(=C/c3ccc(O)cc3O)C(=O)S2)cc1OC
Ans: > 300 °C

Q: Try this molecule next: COc1ccc(/C(C)=N/NC2=N/C(=C/c3cccs3)C(=O)S2)cc1OC
Ans: 208 to 210 °C

* * *

Reported IC50 values follow for various compounds
Target: purified bovine tubulin (Bos taurus, UniProt P81947+Q6B856)
Construct: purified bovine tubulin (10 μM)
Sequence (Q6B856 whole entry): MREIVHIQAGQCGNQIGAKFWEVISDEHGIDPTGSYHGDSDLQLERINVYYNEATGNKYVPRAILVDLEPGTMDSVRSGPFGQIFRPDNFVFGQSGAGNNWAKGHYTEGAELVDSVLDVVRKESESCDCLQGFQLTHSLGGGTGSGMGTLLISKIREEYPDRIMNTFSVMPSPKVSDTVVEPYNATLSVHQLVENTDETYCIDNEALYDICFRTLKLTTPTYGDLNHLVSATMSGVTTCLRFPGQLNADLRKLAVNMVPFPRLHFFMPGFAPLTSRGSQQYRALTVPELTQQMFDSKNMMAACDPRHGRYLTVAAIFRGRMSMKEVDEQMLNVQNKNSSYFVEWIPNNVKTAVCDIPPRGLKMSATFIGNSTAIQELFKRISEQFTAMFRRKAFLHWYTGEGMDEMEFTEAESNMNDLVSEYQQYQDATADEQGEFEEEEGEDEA
Sequence (P81947 whole entry): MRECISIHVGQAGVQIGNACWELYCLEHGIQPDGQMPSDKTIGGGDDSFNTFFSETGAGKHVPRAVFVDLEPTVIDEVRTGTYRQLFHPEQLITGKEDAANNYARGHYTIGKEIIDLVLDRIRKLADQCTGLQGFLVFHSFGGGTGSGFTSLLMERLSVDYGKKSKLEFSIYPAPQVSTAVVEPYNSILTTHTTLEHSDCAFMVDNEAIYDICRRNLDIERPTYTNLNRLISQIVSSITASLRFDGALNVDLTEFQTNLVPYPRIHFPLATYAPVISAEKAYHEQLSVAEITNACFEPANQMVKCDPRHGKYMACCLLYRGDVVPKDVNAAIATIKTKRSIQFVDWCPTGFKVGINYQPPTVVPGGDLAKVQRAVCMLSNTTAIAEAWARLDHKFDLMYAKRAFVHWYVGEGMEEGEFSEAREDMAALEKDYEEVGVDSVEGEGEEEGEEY
Assay: In vitro tubulin polymerization assay
Conditions: purified bovine tubulin 10 μM, 37 °C; read-out: IC50 Tubulin polymerization inhibition
Numeric only. Scale: nM

Here is how some compounds turned out for IC50.
Q: Any idea what IC50 was measured for COc1ccc(/C(C)=N/NC(N)=S)cc1OC [Compound 3b] ?
Ans: 44.5

Q: Next record, please: C/C(=N\NC1=N/C(=C/c2ccc(O)cc2O)C(=O)S1)c1ccco1 [Compound 8l]
Ans: 13.2

Q: What would you report for COc1ccc(/C=C2/N=C(N/N=C(\C)c3ccco3)SC2=O)cc1OC [Compound 8k] ?
Ans: 13.5

Further cases:
Q: Give its IC50 value. Item: C/C(=N\NC1=N/C(=C/c2ccc(O)cc2)C(=O)S1)c1ccco1 [Compound 8i]
Ans: 47.8

Q: Also, COc1ccc(/C(C)=N/NC2=N/C(=C/c3ccc(O)cc3O)C(=O)S2)cc1OC [Compound 4k] please.
Ans: 50

* * *

Target: purified bovine tubulin (Bos taurus, UniProt P81947+Q6B856)
Construct: purified bovine tubulin (10 μM)
Assay: In vitro tubulin polymerization assay
Conditions: purified bovine tubulin 10 μM, 37 °C; read-out: IC50 Tubulin polymerization inhibition
The entries below are paired with their reported pIC50.
Expect pIC50 as a plain number equal to -log10 of the molar concentration.

Sample records with pIC50:
Q: Consider the molecule C/C(=N\NC1=N/C(=C/c2ccc(Cl)cc2Cl)C(=O)S1)c1ccc(C)cc1 and give its measured pIC50.
Ans: 7.71

Q: How about C/C(=N\NC1=N/C(=C/c2cccs2)C(=O)S1)c1ccc(C)cc1 ?
Ans: 8.02

Others:
Q: // returns reported pIC50 for input C/C(=N\NC1=N/C(=C/c2ccc(Cl)cc2)C(=O)S1)c1ccco1
Ans: 7.42

Q: Entry C/C(=N\NC1=N/C(=C/c2cccs2)C(=O)S1)c1cccs1 please
Ans: 7.41

Q: Do the same for C/C(=N\NC1=N/C(=C/c2ccc(O)cc2O)C(=O)S1)c1ccc(C)cc1 please
Ans: 8.03

Q: Param item: COc1ccc(/C=C2/N=C(N/N=C(\C)c3ccco3)SC2=O)cc1
Ans: 7.85

Q: Request: C/C(=N\NC1=N/C(=C/c2ccc(O)cc2O)C(=O)S1)c1cccs1
Ans: 7.94

Q: What do you have for COc1ccc(/C=C2/N=C(N/N=C(\C)c3ccc(C)cc3)SC2=O)cc1OC ?
Ans: 7.32
